# Test system: B16
# measurement protocol: In vitro antiproliferative activity against B16 cell lines
# Assay type: functional, cell-based
# experimental parameters: Mus musculus
reported endpoint: pIC50
Note on pIC50: it is the negative log10 of concentration, concentration in mol/L.

[ask] Return reported pIC50; argument: N#CN=C(NCCCCCCOc1ccc(Cl)cc1)Nc1ccncc1
[reply] 6.55

[ask] Let us now turn to CC(=O)O[C@H]1C(=O)[C@@]2(C)[C@H]([C@H](OC(=O)c3ccccc3)[C@]3(O)C[C@H](OC(=O)[C@H](O)[C@@H](NC(=O)c4ccccc4)c4ccccc4)C(C)=C1C3(C)C)[C@]1(OC(C)=O)CO[C@@H]1C[C@@H]2O
[reply] 8.10

[ask] Then this compound: COc1cccc2c1C(=O)c1c(O)c3c(c(O)c1C2=O)C[C@@](O)(C(C)=O)C[C@@H]3O[C@H]1C[C@H](N)[C@H](O)[C@H](C)O1
[reply] 8.04

====

# Test system: Lewis lung carcinoma cell line
# measurement protocol: In vitro antiproliferative activity against Lewis cell lines
# Type: functional, cell-based
# experimental parameters: Mus musculus
reported endpoint: IC50 (nM)
Respond with the bare value in nM.

[ask] Field request: IC50 | item: COc1cccc2c1C(=O)c1c(O)c3c(c(O)c1C2=O)C[C@@](O)(C(C)=O)C[C@@H]3O[C@H]1C[C@H](N)[C@H](O)[C@H](C)O1 [DAUNORUBICIN]
[reply] 61

[ask] Again, but for N#CN=C(NCCCCCCOc1ccc(Cl)cc1)Nc1ccncc1 [CHS-828]
[reply] 560

[ask] Query CC(=O)O[C@H]1C(=O)[C@@]2(C)[C@H]([C@H](OC(=O)c3ccccc3)[C@]3(O)C[C@H](OC(=O)[C@H](O)[C@@H](NC(=O)c4ccccc4)c4ccccc4)C(C)=C1C3(C)C)[C@]1(OC(C)=O)CO[C@@H]1C[C@@H]2O [PACLITAXEL] next
[reply] 61

Values compiled from ChEMBL document CHEMBL1130292.
